The reported measurements were obtained from PubChem BioAssay (NCI).

System: MOLT-4 leukemia
Experiment: NCI-60 one-dose screen, 48 h (100 = growth as untreated, 0 = no growth, -100 = all killed)
Settings: 10 µM unless noted
About 83,000 compounds went through this panel and 20% of them were active in at least one assay; those are over-represented in the sample as a whole.
METRIC NAME: growth (%)
Numbers only, in %.

Check out these entries, answers already filled in.
O=C(Cc1ccccc1)NC(c1ccc(Cl)cc1)c1c(O)ccc2ccccc12 (stereo not drawn) | 9.11
COC(=O)/C(CCC=C(C)C)=C1\[C@@H](OC(C)=O)C[C@@]2(C)[C@H]1C[C@@H](O)[C@H]1[C@@]3(C)CC[C@H](NC(=O)c4cnccn4)[C@@H](C)[C@@H]3CC[C@@]12C | 83.9
COc1ccc(-c2nc(N3CCN(C(=O)C4CCCCC4)CC3)c3c4c(sc3n2)CCCC4)cc1 | 1.83

Give growth for all molecules that follow.
1. Oc1ccc(-c2nc(-c3ccc4oc5ccc(-c6[nH]c(-c7ccc(O)cc7)nc6-c6ccccc6)cc5c4c3)c(-c3ccccc3)[nH]2)cc1
2. COc1ccc(/C=C/C(=O)c2ccc3cc(OC)c(OC)cc3c2)cc1OC
3. COc1ccc(Cn2cc(Cn3c(=O)c(-c4nc5ccccc5[nH]4)cc4ccccc43)nn2)c(OC)c1OC
4. O=C1c2cc(I)ccc2Oc2cc([N+](=O)[O-])ccc2N1c1ccc(Cl)cc1F
5. COC(=O)[C@H](NC(=O)C1(C)CCC[C@]2(C)[C@H]3C[C@H]4C(C(C)C)=C[C@]3(CC[C@@H]12)[C@@H]1C(=O)CCC(=O)[C@@H]14)C(C)C (stereo partly drawn)

Result ::
57.1
30.7
17.9
56.6
102

----------
System: HS 578T breast
Assay: NCI-60 one-dose screen, 48 h (100 = growth as untreated, 0 = no growth, -100 = all killed)
Conditions: 10 µM unless noted
Experimental: Growth inhibition of the HS 578T human tumor cell line is measured as a screen for anti-cancer activity. Cells are grown in 96 well plates and exposed to the test compound for 48 hours. Compounds are tested at a single concentration, which is 10^-5 M for most compounds. The reported endpoint is percent growth (GI% or GIPRCNT), where numbers from 0 - 100% represent growth inhibition, and numbers from -100% - 0 represent cell death. For example, a value of 40 represents 60% growth inhibition. […]
About 83,000 compounds went through this panel and 20% of them were active in at least one assay; those are over-represented in the sample as a whole.
growth below 80% gives Not fulfilled; growth at or above it gives Fulfilled.

Please review the following examples before continuing.
Cc1cccc2c(=O)c3c(sc12)c(N1CCNCC1)nc1ccccc13 | Not fulfilled
Clc1ncccc1Nc1ccc2nnc(-c3ccncc3)n2n1 | Fulfilled
CSc1nc2c(c(=O)n1C)N=C1c3ccccc3C(=O)C1C(c1ccccc1)N2 (stereo not given) | Not fulfilled

Query :: # bool: growth of CC1=C(C(=O)OCC2CCN(C(=O)OC(C)(C)C)CC2)[C@H](c2cccc(Br)c2)C2=C(CC(C)(C)CC2=O)N1 >= 80%
Result :: Not fulfilled

Query :: Does the compound COc1ccc(Nc2nc(N/N=C/c3ccc(O)cc3)nc(Nc3ccc([N+](=O)[O-])cc3)n2)cc1 have recorded growth that is 80% or more?
Result :: Fulfilled

Query :: Given O=Cc1c(OCc2cnnn2CC(=O)Nc2ccc(Cl)cc2)ccc2ccccc12 , state whether its growth is at least 80%.
Result :: Fulfilled

Query :: # check: growth of O=c1c2cc(F)ccc2sc2c(Nc3ccncc3)nc3ccccc3c12 is greater than or equal to 80%
Result :: Not fulfilled

Query :: Confirm if growth reported for the compound O=C1/C(=C/c2cccc(O)c2)COc2ccc(O)cc21 is 80% or above.
Result :: Fulfilled

Query :: Does O=C(N=Nc1c(O)[nH]c2ccccc12)c1oc2ccccc2c1CN1CCN(c2ccccc2)CC1 have a reported growth of at least 80%?
Result :: Not fulfilled

----------
Test system: TK-10 renal
Test: NCI-60 one-dose screen, 48 h (100 = growth as untreated, 0 = no growth, -100 = all killed)
Details: 10 µM unless noted
Experimental: Growth inhibition of the TK-10 human tumor cell line is measured as a screen for anti-cancer activity. Cells are grown in 96 well plates and exposed to the test compound for 48 hours. Compounds are tested at a single concentration, which is 10^-5 M for most compounds. The reported endpoint is percent growth (GI% or GIPRCNT), where numbers from 0 - 100% represent growth inhibition, and numbers from -100% - 0 represent cell death. For example, a value of 40 represents 60% growth inhibition. […]
The panel holds about 83,000 compounds, 20% with a hit somewhere; the sample as a whole holds those more often.
METRIC NAME: growth (%)
Give bare numbers, in %.

Before answering, review these 2 worked examples.
CN(C)CCCNCc1ccc(-c2ccc(F)c(Cl)c2)o1 | 42.8
O=C(N/N=C/c1ccccc1O)C(=O)Nc1ccc(F)cc1 | 53.8

Items follow; give growth for each.
1. COc1cc(/C(C#N)=C/c2nc3c(N4CCOCC4)nc(Cl)nc3n2C)cc(OC)c1OC
2. O=C(Nc1ccc(F)cc1F)c1cc(Cl)ccc1O
3. Cc1cc2c(c(C)c1Cl)C(=O)/C(=C/c1cccc([N+](=O)[O-])c1)O2
4. O=c1oc2ccc(-c3ccc(F)cc3F)cc2c(=O)n1-c1ccc(Cl)c(C(F)(F)F)c1
5. COc1ccc(-c2cn[nH]c2-c2cc(OC)c(OC)c(OC)c2)cc1OCc1ccccc1
6. COc1cc2nc(-c3cccc4cccnc34)nc(NC3CCN(Cc4ccccc4)CC3)c2cc1OC
7. O=C(Nc1ccc(N2CCNCC2)cc1)c1[nH]ncc1Nc1cc(Oc2ccccc2)ncn1
8. Cc1cccc2c(=O)c3c(sc12)c(NCCN)nc1ccccc13

Result ::
1: 50.5; 2: 17.4; 3: 129; 4: 15.8; 5: 50.9; 6: -88.7; 7: 49.5; 8: -73.7

Fill in growth for each of the 5 compounds listed.
1. CCOC(=O)c1cnc2ccc(Cl)cc2c1NCCCN(C)C
2. Cc1ccc(Nc2nc(N)c3ccccc3n2)cc1Cl
3. COC(=O)c1c2c(c(C)[n+]([O-])c1C)C(=O)C(NCc1ccc(F)c(F)c1)=CC2=O
4. O=C(N/N=C/c1ccccc1Cl)C(=O)Nc1cccc(C(F)(F)F)c1
5. CCOC(=O)C(CC(=O)O)=C(C(=O)OCC)C(=O)OCC

Result ::
33.8
81.5
85.5
83.7
120

----------
Test system: MDA-MB-231 breast
Experiment: NCI-60 one-dose screen, 48 h
Conditions: 10 µM unless noted
About 83,000 compounds went through this panel and 20% of them were active in at least one assay; those are over-represented in the sample as a whole. Activity calls are given as the source filed them. Rule for the calls: active = growth percent below 10; inactive = the rest.
Write down one outcome, taken from active, inactive

COc1ccc2sc(N(Cc3cccnc3)C(=O)c3ccc(C#N)cc3)nc2c1 | inactive
CCOC(=O)C1(Cc2ccccc2)CCN(Cc2cccc(OC)c2O)CC1 | inactive
OC(CNC1CCCCC1)Cn1c2ccc(I)cc2c2cc(I)ccc21 (stereo not given) | inactive
Cc1cccc(NC(=O)c2sc3nc4c(cc3c2N)CCCC4)c1C | inactive
CC[C@@H](C)[C@H](NC(=O)Cn1cc(CNC(=O)[C@@H](NC(=O)OCc2ccccc2)C(C)C)nn1)C(=O)O | inactive

Query :: What did this assay record as the result for Nc1ccc(-c2ccc(-c3ccccc3N)c3[nH]c4ccccc4c23)cc1 ?
Result :: inactive

Query :: Which outcome did this test record for the molecule COc1ccc(-c2nnc(COc3ccc(C(=O)/C=C/c4ccco4)cc3)o2)cc1 ?
Result :: inactive

Query :: Assay result, entry O=c1oc2ccc(F)cc2c(=O)n1-c1ccc(F)cc1F — outcome?
Result :: inactive

Query :: What outcome does the record of this test show for Nc1nc(-c2cnccn2)nn1-c1nc2ccccc2s1 ?
Result :: inactive

Query :: What was the test verdict on Cc1ccc(NCCNCC(O)CO)c2c(=O)c3ccccc3sc12 (stereo not given) ?
Result :: active

----------
Would you mind telling me the reported growth of each entry?
System: HT29 colon
Assay: NCI-60 one-dose screen, 48 h (100 = growth as untreated, 0 = no growth, -100 = all killed)
Settings: 10 µM unless noted
This is part of a sample that, as a whole, favours compounds with a hit. Of some 83,000 tested, about 20% had one in any assay.
Give bare numbers, in %.

Example entries and their recorded answers appear below.
CC(=S)NC(=O)C(=O)/C=C1/NC(=O)C(=O)S1 | 110
O=C(Nc1ccc(Br)cc1F)c1cc(Cl)ccc1O | 15.6
Cn1c(=O)n(C)c2cc(CNCCNc3ccnc4cc(Cl)ccc34)ccc21 | 6.95

Hey, can you go through the list below and give me growth for every item?
1. COc1cccc(C2=NN3C(C2)c2ccccc2OC3c2ccc(/C=C3\SC(=O)NC3=O)cc2)c1 (stereo unspecified)
2. COc1ccc(-c2cn[nH]c2-c2ccc(OC)c(O)c2)cc1
3. COc1cc(/C=C2\CN(C)C/C(=C\c3cc(CN4CCCCC4)c(O)c(OC)c3)C2=O)cc(CN2CCCCC2)c1O
4. Nc1nc(-c2ccccc2Br)nn1-c1nc2ccccc2s1
5. Cc1ccc2c(n1)C(=O)C(Oc1ccc(Br)cc1)=CC2=O

Result ::
1: 111; 2: 94.3; 3: 3.56; 4: 101; 5: 97.6
